Target: UGDH S316A (Homo sapiens, UniProt O60701, S316A)
Construct: six-histidine
Sequence (O60701 1-494 S316A): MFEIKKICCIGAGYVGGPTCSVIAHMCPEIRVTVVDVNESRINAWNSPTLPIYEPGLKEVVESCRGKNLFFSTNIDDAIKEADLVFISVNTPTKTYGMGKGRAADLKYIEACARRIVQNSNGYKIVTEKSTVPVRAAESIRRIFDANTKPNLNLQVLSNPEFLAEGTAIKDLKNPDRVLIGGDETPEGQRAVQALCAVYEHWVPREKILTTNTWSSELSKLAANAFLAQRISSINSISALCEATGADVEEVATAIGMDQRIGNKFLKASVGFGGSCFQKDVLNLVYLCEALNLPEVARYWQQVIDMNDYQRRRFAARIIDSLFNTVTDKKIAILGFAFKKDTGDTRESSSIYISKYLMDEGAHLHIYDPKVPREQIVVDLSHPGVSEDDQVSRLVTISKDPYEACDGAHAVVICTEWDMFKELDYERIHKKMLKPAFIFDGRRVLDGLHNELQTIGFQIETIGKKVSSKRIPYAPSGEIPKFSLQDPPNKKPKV
Assay: UDP-Xyl inhibition of the catalytic reaction, UGDH S316A
Details: sub-saturating UDP-Glc and NAD+, read-out: UDP-Xylose IC50
endpoint: pIC50
Answers are plain numbers, as −log10 of the molar value.

GET pIC50 where system = UGDH S316A (Homo sapiens, UniProt O60701, S316A) and item = O=c1ccn([C@@H]2O[C@H](COP(=O)(O)OP(=O)(O)O[C@H]3OC[C@@H](O)[C@H](O)[C@H]3O)[C@@H](O)[C@H]2O)c(=O)[nH]1
6.60

* * *

target: UGDH S316A (Homo sapiens, UniProt O60701, S316A); construct: six-histidine; test: isothermal titration calorimetry, UDP-Xylose binding to UGDH S316A; details: ITC, single-site binding model
endpoint: Kd (nM)
Numbers only, in nM.

Return value of Kd for input O=c1ccn([C@@H]2O[C@H](COP(=O)(O)OP(=O)(O)O[C@H]3OC[C@@H](O)[C@H](O)[C@H]3O)[C@@H](O)[C@H]2O)c(=O)[nH]1 [UDP-Xylose] , no commentary.
71

* * *

biological target: UGDH S316D (Homo sapiens, UniProt O60701, S316D); construct: six-histidine; experiment: isothermal titration calorimetry, UDP-Xylose binding to UGDH S316D; details: UGDH S316D; ITC, single-site binding model
endpoint: Kd (nM)
Numbers only, in nM.

Return value of Kd for input O=c1ccn([C@@H]2O[C@H](COP(=O)(O)OP(=O)(O)O[C@H]3OC[C@@H](O)[C@H](O)[C@H]3O)[C@@H](O)[C@H]2O)c(=O)[nH]1 [UDP-Xylose] , no commentary.
150

* * *

biological target: UGDH S316D (Homo sapiens, UniProt O60701, S316D); construct: six-histidine; assay: UDP-Xyl inhibition of the catalytic reaction, UGDH S316D; conditions: sub-saturating UDP-Glc and NAD+, read-out: UDP-Xylose IC50
endpoint: IC50

GET IC50 where system = UGDH S316D (Homo sapiens, UniProt O60701, S316D) and item = O=c1ccn([C@@H]2O[C@H](COP(=O)(O)OP(=O)(O)O[C@H]3OC[C@@H](O)[C@H](O)[C@H]3O)[C@@H](O)[C@H]2O)c(=O)[nH]1
250 nM
